- testedTarget: SMYD3 (Homo sapiens (Human))
- Sequence (Q9H7B4 whole entry): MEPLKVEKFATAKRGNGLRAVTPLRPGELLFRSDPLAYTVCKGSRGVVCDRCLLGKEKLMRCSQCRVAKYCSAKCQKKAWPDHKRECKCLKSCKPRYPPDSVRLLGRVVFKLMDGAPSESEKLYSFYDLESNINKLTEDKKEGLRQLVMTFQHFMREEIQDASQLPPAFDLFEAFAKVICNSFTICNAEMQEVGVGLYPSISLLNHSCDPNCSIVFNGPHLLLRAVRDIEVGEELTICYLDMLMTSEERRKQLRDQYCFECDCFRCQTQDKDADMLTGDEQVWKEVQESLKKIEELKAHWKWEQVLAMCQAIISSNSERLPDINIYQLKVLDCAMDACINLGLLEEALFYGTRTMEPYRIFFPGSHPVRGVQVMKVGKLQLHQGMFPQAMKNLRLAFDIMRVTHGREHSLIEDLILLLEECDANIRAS
- measurementDescription: SMYD3 cell assay (Trimethyl-MEKK2 In-Cell Western in 293T/17 cells)
- Assay type: cell-based
- conditionInfo: read-out: SMYD3 Cell IC50 (μM)*
Exercise: for every item that follows, state its recorded IC50.
Number in µM, nothing else.

Exam item: Could you please provide reported IC50 for C[C@@H]1CC(NC(=O)c2cc(C3CC3)on2)CCN1C(=O)[C@H]1CC[C@H](N)CO1 (some centres unmarked) ? Thanks!
Marked response: 1.35

Exam item: Could you please provide reported IC50 for N[C@H]1CC[C@H](C(=O)N2[C@@H]3CC[C@H]2C[C@@H](NC(=O)c2cc(C4CC4)on2)C3)CC1 ? Thanks!
Marked response: 1.7

Exam item: Could you please provide reported IC50 for C[C@@H]1CC(NC(=O)c2cc(C3CC3)on2)CCN1S(=O)(=O)CCN (some centres unmarked) ? Thanks!
Marked response: 2.91

Exam item: Could you please provide reported IC50 for N[C@@H](Cc1ccc(O)c(I)c1)C(=O)N1CCC(NC(=O)c2cc(C3CC3)on2)CC1 ? Thanks!
Marked response: 0.809

Exam item: Could you please provide reported IC50 for NC[C@@H](Cc1ccccc1)C(=O)N1CCC(NC(=O)c2cc(C3CC3)on2)CC1 ? Thanks!
Marked response: 1.82

Exam item: Could you please provide reported IC50 for CC1(NC(=O)c2cc(C3CC3)on2)CCN(S(=O)(=O)CCCN)CC1 ? Thanks!
Marked response: 1.42

Exam item: Could you please provide reported IC50 for NC[C@H](Cc1ccc(O)c(I)c1)C(=O)N1CCC(NC(=O)c2cc(C3CC3)on2)CC1 ? Thanks!
Marked response: 1.1

Exam item: Could you please provide reported IC50 for C[C@H]1C[C@@H](NC(=O)c2cc(C3CC3)on2)CCN1S(=O)(=O)CCc1ccccc1 ? Thanks!
Marked response: 3.3

---

- testedTarget: SMYD3 (Homo sapiens (Human))
- measurementDescription: SMYD3 biochemical assay (SPA, 3H-SAM methylation of MEKK2 protein substrate)
- conditionInfo: average of n = 1 to n = 50; read-out: SMYD3 Biochem IC50
propertyLabel: IC50 (nM)
Number in nM, nothing else.

Exam item: Could you please provide reported IC50 for C[C@H]1CN(S(=O)(=O)N2CCN(C)CC2)[C@@H](C)C[C@H]1NC(=O)c1cc(C2CC2)on1 ? Thanks!
Marked response: 418

Exam item: Could you please provide reported IC50 for Cc1ccnc(S(=O)(=O)N2CC[C@H](NC(=O)c3cc(C4CC4)on3)C[C@@H]2C)c1 ? Thanks!
Marked response: 512

Exam item: Could you please provide reported IC50 for C[C@@H]1C[C@@H](NC(=O)c2cc(C3CC3)on2)CCN1S(=O)(=O)C(CCN)c1ccccc1 (stereo partly shown) ? Thanks!
Marked response: 218

Exam item: Could you please provide reported IC50 for C[C@@H]1CN(S(=O)(=O)CCN2CCCC2)[C@H](C)C[C@@H]1NC(=O)c1cc(C2CC2)on1 ? Thanks!
Marked response: 541

Exam item: Could you please provide reported IC50 for CN(CCCS(=O)(=O)N1[C@@H]2CC[C@H]1C[C@@H](NC(=O)c1cc(C3CC3)on1)C2)CCN1CCOCC1 ? Thanks!
Marked response: 217

Exam item: Could you please provide reported IC50 for C[C@H]1CN(S(=O)(=O)NC2CCN(Cc3ccccc3)CC2)CC[C@H]1NC(=O)c1cc(C2CC2)on1 ? Thanks!
Marked response: 170

Exam item: Could you please provide reported IC50 for O=C(N[C@H]1C[C@H]2CC[C@@H](C1)N2S(=O)(=O)CCNCCN1CCOCC1)c1cc(C2CC2)on1 ? Thanks!
Marked response: 514
